target entity: GLP-1R (Homo sapiens)
Construct: host or cells: GLP-1R CRE-bla CHO-K1 cells
Sequence (P43220 24-463): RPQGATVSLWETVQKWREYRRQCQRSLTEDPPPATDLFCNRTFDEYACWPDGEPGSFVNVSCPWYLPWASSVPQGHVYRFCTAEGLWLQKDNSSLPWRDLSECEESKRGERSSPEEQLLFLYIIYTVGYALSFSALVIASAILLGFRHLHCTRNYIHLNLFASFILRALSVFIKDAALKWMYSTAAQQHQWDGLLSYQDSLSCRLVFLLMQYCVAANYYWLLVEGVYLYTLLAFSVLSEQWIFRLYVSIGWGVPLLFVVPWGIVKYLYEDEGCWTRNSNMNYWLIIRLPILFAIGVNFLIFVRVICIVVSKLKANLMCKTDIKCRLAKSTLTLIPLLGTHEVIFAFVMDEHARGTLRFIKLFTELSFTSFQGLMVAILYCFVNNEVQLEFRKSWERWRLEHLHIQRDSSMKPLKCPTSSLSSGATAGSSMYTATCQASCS
Sequence (P01275 100-127 partner limits assumed): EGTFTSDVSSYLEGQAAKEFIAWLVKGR
assay name: EC20 GLP-1(9-36) PAM cAMP assay: dose response of compound in the presence of fixed concentration of GLP-1(9-36)
Format: cell-based
condition notes: GLP-1R CRE-bla CHO-K1 cells, compound dose response with fixed concentration of GLP-1(9-36), read-out: EC20 GLP-1(9-36) PAM EC50
value kind: EC50

| smiles data | experimental value |
| --- | --- |
| CC[C@H]1CC[C@H](c2ccc(-c3cnc(-c4ccc(C[C@H](NC(=O)c5ccc(C(F)(F)F)nc5)C(=O)O)cc4)nc3)cc2)CC1 | 0.8 to 2.5 µM |
| CCCCC[C@H]1CC[C@H](c2ccc(-c3cnc(-c4ccc(C[C@H](NC(=O)c5ccc(C(C)(C)C)s5)C(=O)N[C@H](C)C(=O)O)cc4)nc3)cc2)CC1 | 2.5 to 5 µM |
| CCC[C@H]1CC[C@H](C2CCN(c3cnc(-c4ccc(C[C@H](NC(=O)c5ccc(C(C)(C)C)s5)C(=O)N[C@H](CCC(N)=O)C(=O)O)cc4)nc3)CC2)CC1 | < 0.8 µM |

Data origin: patent US10034886B2
